Listed here are molecules together with their documented Solution 1 pH dil.
Experiment: 10x dilution of soluble forms with standard IV solutions (pH, precipitate)
Type: physicochemical
Conditions: Cpd A salt solution diluted 10x with 0.9% NaCl
Please respond with just the number, no unit label.

{"columns": ["Molecule", "Solution 1 pH dil"],
 "data": [
  ["CCn1cc(C(=O)O)c(=O)c2cc(F)c(N3CCNCC3)cc21 [A Methane Sulphonic]", 5.4],
  ["CCn1cc(C(=O)O)c(=O)c2cc(F)c(N3CCNCC3)cc21 [A D-Galacturonic]", 5.36],
  ["CCn1cc(C(=O)O)c(=O)c2cc(F)c(N3CCNCC3)cc21 [A Lactic]", 4.3],
  ["CCn1cc(C(=O)O)c(=O)c2cc(F)c(N3CCNCC3)cc21 [A D-Gluconic]", 4.4],
  ["CCn1cc(C(=O)O)c(=O)c2cc(F)c(N3CCNCC3)cc21 [A Isethionic]", 2.18],
  ["CCn1cc(C(=O)O)c(=O)c2cc(F)c(N3CCNCC3)cc21 [A Hydrochloric]", 2.7],
  ["CCn1cc(C(=O)O)c(=O)c2cc(F)c(N3CCNCC3)cc21 [A L-Aspartic]", 5.05],
  ["CCn1cc(C(=O)O)c(=O)c2cc(F)c(N3CCNCC3)cc21 [A Acetic]", 5.4]
]}

Please fill in: Solution 1 pH dil reported for CCn1cc(C(=O)O)c(=O)c2cc(F)c(N3CCNCC3)cc21 [A L-Glutamic] = 5.18

----------
Experiment: 10x dilution of soluble forms with standard IV solutions (pH, precipitate)
Assay type: physicochemical
Details: undiluted Cpd A solution
Procedure: The amount of Compound A or Compound B calculated for selected concentrations was weighed into volumetric flasks. Equimolar quantities of combining acid, amino acid, or base were added either as solutions or in dry form. Deionized water was added to bring the volume to that desired for the preselected concentrations.. All flasks were sonicated for 15 minutes, allowed to stand at room temperature for 30 minutes, then filtered through a fine frit sintered glass funnel. […]
Reported Property: pH of Solut.
Please give the numeric answer without any surrounding text.

{"columns": ["Compound", "pH of Solut."],
 "data": [
  ["CCn1cc(C(=O)O)c(=O)c2cc(F)c(N3CCNCC3)cc21 [A L-Aspartic]", 4.88],
  ["CCn1cc(C(=O)O)c(=O)c2cc(F)c(N3CCNCC3)cc21 [A Acetic]", 5.3],
  ["CCn1cc(C(=O)O)c(=O)c2cc(F)c(N3CCNCC3)cc21 [A Methane Sulphonic]", 1.5],
  ["CCn1cc(C(=O)O)c(=O)c2cc(F)c(N3CCNCC3)cc21 [A D-Gluconic]", 4.30]
]}

pH of Solut. recorded for this compound, CCn1cc(C(=O)O)c(=O)c2cc(F)c(N3CCNCC3)cc21 [A L-Glutamic] , is 5.08

Query CCn1cc(C(=O)O)c(=O)c2cc(F)c(N3CCNCC3)cc21 [A Hydrochloric] yields pH of Solut. of 1.52

The compound identified as CCn1cc(C(=O)O)c(=O)c2cc(F)c(N3CCNCC3)cc21 [A Isethionic] registered its pH of Solut. at 1.35

----------
Experiment: Solubility screening procedure (concentration and pH of filtrate)
Assay type: physicochemical
Settings: compound B + equimolar acid, amino acid or base in deionized water, room temperature, filtrate, UV assay
Reported Property: Conc. of CPD B (µg/mL)
Report the figure in µg/mL without appending any unit label.

Below, 3 molecules whose answers are already recorded.
{"columns": ["Molecule", "Conc. of CPD B / µg/mL"],
 "data": [
  ["CCn1cc(C(=O)O)c(=O)c2cc(F)c(N3CCNCC3)nc21 [B L-Arginine]", 6700],
  ["CCn1cc(C(=O)O)c(=O)c2cc(F)c(N3CCNCC3)nc21 [B L-Glutamic]", 160000],
  ["CCn1cc(C(=O)O)c(=O)c2cc(F)c(N3CCNCC3)nc21 [B Oxalic]", 2800]
]}

Summary for this molecule, CCn1cc(C(=O)O)c(=O)c2cc(F)c(N3CCNCC3)nc21 [B Lactic] : Conc. of CPD B is 217000

What the record says about CCn1cc(C(=O)O)c(=O)c2cc(F)c(N3CCNCC3)nc21 [B Lactobionic] : Conc. of CPD B is 99000
